assay: Thermodynamic solubility in PBS (pH 7.4); format: physicochemical; conditions: phosphate buffered saline, pH 7.4, Table 3; PBS pH 7.4, 24 h at 22° C.; read-out: Solubility
Non-standard residues stand in square brackets, D forms with d. Residues, ends and D or L forms follow the SMILES beside them. Aib = CC(C)(N)C(=O)O
measured_parameter: solubility thermodynamic at 24 h (µM)
Kindly answer with a numeric value in µM, unit omitted.

compound | quantity_unit | solubility thermodynamic at 24 h
CC(C)[C@H](NC(=O)[C@@H](NC(=O)[C@@H]1CCCN1C(=O)[C@@H]1CCCN1C(=O)[C@H](Cc1ccc(O)cc1)NC(=O)[C@H](Cc1c[nH]c2ccccc12)NC(=O)[C@H](C)NC(=O)[C@H](Cc1ccc(O)cc1)NC(=O)[C@H](Cc1c[nH]c2ccccc12)NC(=O)[C@H](C)NC(=O)[C@H](Cc1ccc(O)cc1)NC(=O)[C@H](Cc1c[nH]c2ccccc12)NC(=O)C(C)(C)NC(=O)C(C)(C)NC(=O)C(C)(C)NC(=O)C(C)(C)N)C(C)C)C(N)=O [Compound 80] (H-[Aib][Aib][Aib][Aib]WYAWYAWYPPVV-NH2) | µM | 5

Moving on to the next compound.
Task item: Item under review: CC(C)[C@H](NC(=O)[C@@H](NC(=O)[C@@H]1CCCN1C(=O)[C@@H]1CCCN1C(=O)[C@H](Cc1ccc(O)cc1)NC(=O)[C@H](Cc1c[nH]c2ccccc12)NC(=O)[C@H](C)NC(=O)[C@H](Cc1c[nH]c2ccccc12)NC(=O)[C@H](Cc1c[nH]c2ccccc12)NC(=O)[C@H](C)NC(=O)[C@H](Cc1c[nH]c2ccccc12)NC(=O)[C@H](Cc1c[nH]c2ccccc12)NC(=O)C(C)(C)NC(=O)C(C)(C)NC(=O)C(C)(C)NC(=O)C(C)(C)N)C(C)C)C(N)=O [Compound 79] (H-[Aib][Aib][Aib][Aib]WWAWWAWYPPVV-NH2) . Reported solubility thermodynamic at 24 h?
Reply: 2

====

test: Thermodynamic solubility in PBS (pH 7.4); assay type: physicochemical; details: phosphate buffered saline, pH 7.4, Table 3; PBS pH 7.4, 24 h at 22° C.; read-out: Solubility
Non-standard residues stand in square brackets, D forms with d. Residues, ends and D or L forms follow the SMILES beside them. Aib = CC(C)(N)C(=O)O
Examples of compounds with documented solubility thermodynamic at 24 h follow.
Write the answer as a number in µM, unit excluded.

compound | solubility thermodynamic at 24 h, µM
CC(C)[C@H](NC(=O)[C@@H](NC(=O)[C@@H]1CCCN1C(=O)[C@@H]1CCCN1C(=O)[C@H](Cc1c[nH]c2ccccc12)NC(=O)[C@H](Cc1c[nH]c2ccccc12)NC(=O)[C@H](C)NC(=O)[C@H](Cc1c[nH]c2ccccc12)NC(=O)[C@H](Cc1ccc(O)cc1)NC(=O)C(C)(C)NC(=O)C(C)(C)NC(=O)C(C)(C)NC(=O)C(C)(C)N)C(C)C)C(N)=O [Compound 52] (H-[Aib][Aib][Aib][Aib]YWAWWPPVV-NH2) | 21

Would you kindly look at the next entry?
Task item: # get_value(readout='solubility thermodynamic at 24 h', item= CC(C)[C@H](NC(=O)[C@@H](NC(=O)[C@@H]1CCCN1C(=O)[C@@H]1CCCN1C(=O)[C@H](Cc1c[nH]c2ccccc12)NC(=O)[C@H](C)NC(=O)[C@H](C)NC(=O)[C@H](Cc1c[nH]c2ccccc12)NC(=O)[C@H](Cc1c[nH]c2ccccc12)NC(=O)C(C)(C)NC(=O)C(C)(C)NC(=O)C(C)(C)NC(=O)C(C)(C)N)C(C)C)C(N)=O [Compound 47] (H-[Aib][Aib][Aib][Aib]WWAAWPPVV-NH2) )
Reply: 63

meta.source: patent US10766928B2
